- protocol.description: NCI Yeast Anticancer Drug Screen. Data for the mec2-1 strain (AID 157)
- assay.context: S. cerevisiae mec2-1 strain, at 50.0 µM
About 79,000 compounds went through this panel and 15% of them were active in at least one assay; those are over-represented in the sample as a whole. The source made the active and inactive calls. Cut-off read from the data, not from the text of the source: active = growth inhibition above about 70%; inactive = the rest.
Respond with a class label; see active, inactive

molecule	assigned.label
C1CC[N-]CC1.C1CC[N-]CC1.C1CC[N-]CC1.C1CC[N-]CC1.[Cl][Rh][Cl]	inactive

Query :: Dear all, I need the recorded test outcome for `C[C@]12CCCC[C@@H]1CC[C@@H]1[C@@H]2C(=O)C[C@@]2(C)[C@H]1CC[C@]2(C)O` , thank you.
Result :: active

Query :: Another molecule to look at: COC(=O)C(C)N(CCCl)P(=O)(N1CC1)N1CC1 (stereo not drawn)
Result :: inactive
